Provenance of the data: patent US20240270762A1

The entries below come with measured EC50 values attached.
- measured-target: A. baumannii PBP2 (Acinetobacter baumannii)
- Sequence (D0C8Z9 whole entry): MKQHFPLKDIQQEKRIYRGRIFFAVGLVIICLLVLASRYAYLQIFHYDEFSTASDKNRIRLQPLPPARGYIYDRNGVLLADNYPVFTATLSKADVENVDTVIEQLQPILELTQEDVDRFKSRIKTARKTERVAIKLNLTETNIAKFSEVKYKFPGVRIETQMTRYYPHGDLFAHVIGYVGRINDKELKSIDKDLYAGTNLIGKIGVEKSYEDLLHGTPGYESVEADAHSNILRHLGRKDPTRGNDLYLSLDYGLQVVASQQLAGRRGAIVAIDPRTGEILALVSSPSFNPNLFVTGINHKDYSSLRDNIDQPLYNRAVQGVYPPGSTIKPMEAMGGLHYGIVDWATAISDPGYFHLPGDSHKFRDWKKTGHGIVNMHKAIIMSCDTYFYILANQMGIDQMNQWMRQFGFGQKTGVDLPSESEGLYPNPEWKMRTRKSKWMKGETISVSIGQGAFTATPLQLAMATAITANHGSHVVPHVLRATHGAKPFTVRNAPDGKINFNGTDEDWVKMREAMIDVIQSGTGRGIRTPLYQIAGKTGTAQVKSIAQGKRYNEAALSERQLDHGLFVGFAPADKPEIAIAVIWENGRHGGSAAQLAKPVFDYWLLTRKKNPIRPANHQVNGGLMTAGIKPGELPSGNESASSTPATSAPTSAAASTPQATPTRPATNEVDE
- protocol-summary: Bocillin-FL competition binding via gel filtration, A. baumannii PBP2

{"molecule": "O=C(O)c1c(F)ccc2c1OB(O)[C@@H](NC(=O)C(NC(=O)N1CCN(C3CCN(Cc4ccc(F)c(O)c4)CC3)C1=O)c1cc(F)c(O)c(O)c1Cl)C2 (single isomer, unassigned)", "measured-target": "A. baumannii PBP2 (Acinetobacter baumannii)", "EC50": "10 to 50 µM"}
{"molecule": "O=C(NCCN1CCN(C(=O)NC(C(=O)N[C@H]2Cc3ccc(F)c(C(=O)O)c3OB2O)c2cc(F)c(O)c(O)c2Cl)C(=O)C1=O)c1ccncc1 (some centres unmarked)", "measured-target": "A. baumannii PBP2 (Acinetobacter baumannii)", "EC50": "10 to 50 µM"}
{"molecule": "NCc1cccc(C(=O)N2CCC(N3CCN(C(=O)N[C@@H](C(=O)N[C@H]4Cc5ccc(F)c(C(=O)O)c5OB4O)c4cc(F)c(O)c(O)c4Cl)C3=O)CC2)c1", "measured-target": "A. baumannii PBP2 (Acinetobacter baumannii)", "EC50": "10 to 50 µM"}
{"molecule": "O=C(NCCS(=O)(=O)N1CCN(C(=O)NC(C(=O)N[C@H]2Cc3ccc(F)c(C(=O)O)c3OB2O)c2cc(F)c(O)c(O)c2Cl)C1=O)c1cccc(O)c1 (some centres unmarked)", "measured-target": "A. baumannii PBP2 (Acinetobacter baumannii)", "EC50": "10 to 50 µM"}
{"molecule": "O=C(O)c1c(F)ccc2c1OB(O)[C@@H](NC(=O)C(NC(=O)N1CCN(C3CCN(S(=O)(=O)Cc4cccc(O)c4)CC3)C(=O)C1=O)c1cc(F)c(O)c(O)c1Cl)C2 (some centres unmarked)", "measured-target": "A. baumannii PBP2 (Acinetobacter baumannii)", "EC50": "< 10 µM"}
{"molecule": "O=C(NCCN1CCN(C(=O)NC(C(=O)N[C@H]2Cc3ccc(F)c(C(=O)O)c3OB2O)c2ccc(P(=O)(O)O)cc2)C(=O)C1=O)c1ccc(O)c(O)c1Cl (some centres unmarked)", "measured-target": "A. baumannii PBP2 (Acinetobacter baumannii)", "EC50": "10 to 50 µM"}
{"molecule": "O=C(O)c1c(F)ccc2c1OB(O)[C@@H](NC(=O)[C@H](NC(=O)N1CCN(C3CCN(C(=O)c4ccc(F)c(O)c4)CC3)C1=O)c1cc(F)c(O)c(O)c1Cl)C2 (single isomer, unassigned)", "measured-target": "A. baumannii PBP2 (Acinetobacter baumannii)", "EC50": "< 10 µM"}
{"molecule": "O=C(NCCCN1CCN(C(=O)NC(C(=O)N[C@H]2Cc3ccc(F)c(C(=O)O)c3OB2O)c2cc(F)c(O)c(O)c2Cl)C(=O)C1=O)c1ccncc1 (some centres unmarked)", "measured-target": "A. baumannii PBP2 (Acinetobacter baumannii)", "EC50": "10 to 50 µM"}
{"molecule": "O=C(NCCCN1CCN(C(=O)NC(C(=O)N[C@H]2Cc3ccc(F)c(C(=O)O)c3OB2O)c2cc(F)c(O)c(O)c2Cl)C(=O)C1=O)c1ccc(F)c(O)c1 (some centres unmarked)", "measured-target": "A. baumannii PBP2 (Acinetobacter baumannii)", "EC50": "< 10 µM"}
{"molecule": "Cc1cc(C(=O)NCCCN2CCN(C(=O)N[C@@H](C(=O)N[C@H]3Cc4ccc(F)c(C(=O)O)c4OB3O)c3cc(F)c(O)c(O)c3Cl)C(=O)C2=O)ccn1", "measured-target": "A. baumannii PBP2 (Acinetobacter baumannii)", "EC50": "10 to 50 µM"}
{"molecule": "O=C(O)c1c(F)ccc2c1OB(O)[C@@H](NC(=O)C(NC(=O)N1CCN(C3CCN(Cc4cc(O)cc(O)c4)CC3)C1=O)c1cc(F)c(O)c(O)c1Cl)C2 (single isomer, unassigned)", "measured-target": "A. baumannii PBP2 (Acinetobacter baumannii)", "EC50": "10 to 50 µM"}
